The measurements presented in this section are drawn from PubChem BioAssay (NCI).

- assay: NCI Yeast Anticancer Drug Screen. Data for the cln2 rad14 strain (AID 165);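 further: 0% = growth equal to vehicle treated cultures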
- stated_conditions: S. cerevisiae cln2 rad14 strain, at 50.0 µM (retest, dose inferred, filed as 5.0), stronger effect = higher value
The panel holds about 79,000 compounds, 15% with a hit somewhere; the sample as a whole holds those more often.
Overview of recorded growth inhibition for various compounds

{"compound": "C(CCc1nn[nH]n1)CCC1CCCCC1", "measurement_units": "%", "growth inhibition": 97}
{"compound": "CCN(CC)c1ccc(/C=C\\C(=O)c2ccc(NC(C)=O)cc2)cc1", "measurement_units": "%", "growth inhibition": -10}
{"compound": "Cc1cccc2c(N)c3ccccc3nc12", "measurement_units": "%", "growth inhibition": 15}
{"compound": "CN(C)CNC(=S)S", "measurement_units": "%", "growth inhibition": 51}
{"compound": "O=C(NOC(=O)c1ccccc1)c1ccccc1", "measurement_units": "%", "growth inhibition": 99}
{"compound": "O=C(O)c1cc2c(s1)C(=O)c1sccc1C2=O", "measurement_units": "%", "growth inhibition": 30}
{"compound": "CCCCC(CCc1ccc([N+](=O)[O-])cc1)(C(C)=O)C(=O)OCC (stereo not drawn)", "measurement_units": "%", "growth inhibition": -14}
{"compound": "CCCCCCCCCCCCCCCc1ccc(C(=O)C[n+]2ccccc2)cc1", "measurement_units": "%", "growth inhibition": 81}
{"compound": "N=C1C(=N)c2ccccc2-c2ccccc21", "measurement_units": "%", "growth inhibition": 87}
{"compound": "Cn1ccc(=Nc2ccc(NC(=O)c3ccc(N=c4ccn(C)c5ccc([N+](=O)[O-])cc45)cc3)cc2)cc1", "measurement_units": "%", "growth inhibition": 96}
{"compound": "CC1(C=O)CCC23COC4(CCC5C6(C)CCC(OC7OCC(OC8OC(CO)C(O)C(OC9OC(CO)C(O)C(O)C9O)C8OC8OCC(O)C(O)C8O)C(O)C7OC7OC(CO)C(O)C(O)C7O)C(C)(C)C6CCC5(C)C4(C)CC2O)C3C1 (stereo not drawn)", "measurement_units": "%", "growth inhibition": 94}
{"compound": "NC(=S)N/N=C/c1ncccc1O", "measurement_units": "%", "growth inhibition": -73}
{"compound": "COc1cc(NC(=O)C2=C(C)NC(C)=C(C(=O)Nc3cc(OC)c(Cl)cc3OC)C2c2cccc([N+](=O)[O-])c2)c(OC)cc1Cl", "measurement_units": "%", "growth inhibition": 96}
{"compound": "Cc1nnc(N/N=C/c2ccc([N+](=O)[O-])o2)[nH]c1=O", "measurement_units": "%", "growth inhibition": 42}
{"compound": "COc1ccc2nc3cc([N+](=O)[O-])ccc3c(NNc3ccccc3)c2c1", "measurement_units": "%", "growth inhibition": -12}
{"compound": "CC1=NN(c2ccccc2)C(=O)C1(Br)Br", "measurement_units": "%", "growth inhibition": 99}
{"compound": "CN(Cc1ccccc1)c1ccc(SC#N)cc1", "measurement_units": "%", "growth inhibition": -4}
{"compound": "CCOC(=O)c1[nH]c(C#N)c(C(=O)OCC)c1C", "measurement_units": "%", "growth inhibition": 45}
{"compound": "CCCOS(=O)(=O)c1ccccc1", "measurement_units": "%", "growth inhibition": 35}
{"compound": "O=C(c1ccccc1)c1ccc(O)c2ncccc12", "measurement_units": "%", "growth inhibition": 99}
{"compound": "Oc1ccc(Cc2cccc(Cl)c2)c(O)c1", "measurement_units": "%", "growth inhibition": 98}
{"compound": "CC(C)(C)c1cc([N+](=O)[O-])c(O)c([N+](=O)[O-])c1", "measurement_units": "%", "growth inhibition": 46}
{"compound": "c1ccc(-c2cc3cc4ccccc4cn3c2)cc1", "measurement_units": "%", "growth inhibition": 84}

* * *

- assay: NCI Yeast Anticancer Drug Screen. Data for the rad50 strain (AID 155);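 further: 0% = growth of vehicle-only cultures of the same strain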
- stated_conditions: S. cerevisiae rad50 strain growth inhibition; at 50.0 µM
The panel holds about 79,000 compounds, 15% with a hit somewhere; the sample as a whole holds those more often. Calls of active or inactive are those of the source. Cut-off read from the data, not from the text of the source: active = growth inhibition above about 70%; inactive = the rest. Where a SMILES comes first, the peptide text is derived from it. [ ]: non-standard residue; d: D form. ξ: configuration not given here. ξD = NC(CC(=O)O)C(=O)O
Outcomes: active, inactive

{"molecule": "O=[N+]([O-])CC(O)c1ccccc1 (stereo not drawn)", "category": "active"}
{"molecule": "CCCCCCC1N=C(N)N=C(N)N1c1cccc(Cl)c1 (stereo not drawn)", "category": "inactive"}
{"molecule": "CC(=O)c1ccc2c(c1)CCc1ccccc1-2", "category": "inactive"}
{"molecule": "O=C1C=CC(=O)N1c1ccc(O)cc1", "category": "active"}
{"molecule": "CCOc1ccc(NC(=O)/C(=N\\N)C(C(=O)OC)c2nc3ccc(Cl)cc3[nH]c2=O)cc1 (stereo not drawn)", "category": "inactive"}
{"molecule": "S=c1[nH]c2cc(Cl)ccc2s1", "category": "inactive"}
{"molecule": "CCCCCCCCCCCCNCCCc1ccccc1", "category": "active"}
{"molecule": "O=[N+]([O-])c1ccc(N2CCN(Cc3ccccc3)CC2)c2c1no[n+]2[O-]", "category": "active"}
{"molecule": "CCOc1cc(F)c([N+](=O)[O-])cc1[N+](=O)[O-]", "category": "active"}
{"molecule": "Cc1cc(O)c2c(c1)C(=O)C(c1c(C)cc3c(c1O)C(=O)C1OC1C3=O)=CC2=O (stereo not drawn)", "category": "active"}
{"molecule": "O=[n+]1c2ccccc2n([O-])c2cc(Cl)ccc21", "category": "active"}
{"molecule": "CCCCCCCCCCCC[N+]1(CCCCCCCCCCCC)CCCC(C)C1 (stereo not drawn)", "category": "active"}
{"molecule": "CCC[CH2][Sn]([CH2]CCC)([CH2]CCC)[O]C(=O)C(OC(C)=O)c1ccccc1 (stereo not drawn)", "category": "active"}
{"molecule": "O=C1/C(=C/c2ccccc2)CCC/C1=C\\c1ccccc1", "category": "active"}
{"molecule": "CCOC(=O)c1c(C)[nH]c2ccc(O)cc12", "category": "active"}
{"molecule": "CCN1/C(=C/C(C)=C/c2sc3ccc4ccccc4c3[n+]2CC)Sc2ccc3ccccc3c21", "category": "active"}
{"molecule": "Cc1cc(O)c(O)c(C(C)(C)CC(C)(C)C)c1", "category": "active"}
{"molecule": "Clc1ccccc1C(c1ccccc1)(c1ccccc1)n1ccnc1", "category": "active"}
{"molecule": "O=[N+]([O-])c1ccc(Oc2ccccc2Cl)c([N+](=O)[O-])c1", "category": "inactive"}
{"molecule": "C1=C(c2ccccc2)c2ccccc2C1", "category": "active"}
{"molecule": "Cc1ccc(/C=N/Nc2cc(C)c3cccc(C)c3n2)s1", "category": "active"}
{"molecule": "O=[N+]([O-])/C(=C/c1ccccc1)c1ccccc1", "category": "active"}
{"molecule": "CCCc1cc(=O)oc2c3c(c4c(c12)OC(C)(C)CC4)OC(C)[C@H](C)[C@@H]3O (stereo partly drawn)", "category": "active"}
{"molecule": "NCC(=O)NC(CC(=O)O)C(=O)O (stereo not drawn) (H-Gly-[ξD]-OH)", "category": "inactive"}
{"molecule": "CCc1oc2ccccc2c1C(=O)c1cc(Br)c(O)c(Br)c1", "category": "active"}
{"molecule": "Cc1ccc(NC(=S)C#N)cc1Cl", "category": "inactive"}
{"molecule": "c1ccc(-c2cc3cc4ccccc4cn3c2)cc1", "category": "active"}
{"molecule": "C=C(CO)C(=O)OC1CC(=C)C2CC(O)C(C)C2C2OC(=O)C(=C)C12 (stereo not drawn)", "category": "active"}
{"molecule": "COc1cc([C@@H]2c3cc4c(cc3[C@H](OC3OC5COC(c6ccccc6)OC5C(O)C3O)[C@H]3COC(=O)[C@H]23)OCO4)cc(OC)c1OC (stereo partly drawn)", "category": "active"}
{"molecule": "COc1ccc(C(OCC2OC(n3ccc(NC(=O)c4ccccc4)nc3=O)C(O)C2O)(c2ccccc2)c2ccccc2)cc1 (stereo not drawn)", "category": "inactive"}
{"molecule": "O=C(CBr)c1ccc(OC(=O)c2ccccc2)cc1", "category": "inactive"}
{"molecule": "C(=N\\Nc1ccc2ccccc2n1)/c1ccccn1", "category": "active"}
{"molecule": "c1ccc(C2NCCNC2c2ccccc2)cc1 (stereo not drawn)", "category": "inactive"}
{"molecule": "OC(c1cc(-c2ccc(Cl)cc2)nc2c(Cl)cccc12)C1CCCCN1 (stereo not drawn)", "category": "active"}
{"molecule": "CCCCCCCCCCCC[n+]1ccc2ccccc2c1", "category": "active"}
{"molecule": "CCOC(=O)COc1cc(-c2ccccc2F)nc2cc3c(cc12)OCO3", "category": "inactive"}
{"molecule": "CCCCCC/C=C1\\CCC(CN2CCCC2)C1=O (stereo not drawn)", "category": "active"}
{"molecule": "CCC1C[N+]2=C(c3cc(OC)c(OC)cc3CC2)c2c1cc1n2CCc2cc(OC)c(OC)cc2-1 (stereo not drawn)", "category": "active"}
{"molecule": "CC(=O)N1CC(=O)NC1=S", "category": "inactive"}
{"molecule": "CCCCCCCCC(=O)OCCCC(CCC(CCC1CCCO1)OC(=O)CCCCCCCC)OC(=O)CCCCCCCC (stereo not drawn)", "category": "active"}
{"molecule": "N#Cc1c2ccccc2nc2ccccc12", "category": "active"}
{"molecule": "Cc1cc(C(=O)c2ccc(Cl)cc2)ccc1O", "category": "active"}
{"molecule": "N=C1C=C(N)C(=O)c2ccccc21", "category": "active"}
{"molecule": "CC(C)(C)c1ccc(O)c(-c2ccccc2)c1", "category": "active"}
{"molecule": "CCOC(=O)c1[nH]c(C#N)c(C(=O)OCC)c1C", "category": "inactive"}
{"molecule": "Cc1ccccc1NC(=O)Cc1csc2[n+]1C(=O)/C(=C/c1ccc([N+](=O)[O-])cc1)S2", "category": "inactive"}
{"molecule": "Oc1ccc(Cl)cc1Cc1cc(Cl)ccc1O", "category": "inactive"}
{"molecule": "CCCCCCCCCCCCSC(=N)N", "category": "inactive"}
